Biological target: T1, recombinant human OX40-his (Sino Biological, Cat#:10481-H03H) (human, UniProt P43489 29-214)
T1 construct: bought protein; also called hOX40-his; not shown: His tag
T1 sequence: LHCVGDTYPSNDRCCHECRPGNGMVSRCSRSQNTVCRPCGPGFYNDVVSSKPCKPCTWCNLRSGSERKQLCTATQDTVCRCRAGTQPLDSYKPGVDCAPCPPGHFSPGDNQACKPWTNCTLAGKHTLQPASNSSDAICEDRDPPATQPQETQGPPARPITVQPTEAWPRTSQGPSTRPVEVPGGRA
Test: SPR Biacore 8K, OX40-His on chip, antibody injected
observed-property: Kd (nM)
Give your result in nM as a bare value.

Worked examples follow.
binder: chimeric antibody 68C8 (antibody, human IgG1, kappa, V domains shown, mouse variable regions with human IgG1/kappa constant regions) VH: QVQLQQSGAELVKPGASVKMSCKASGDTFTSYWITWVKQRPGQGLEWIGDIHPGSGSTNNNEKFKNKATLTVDTSSSTAYMQLSSLTSEDSAVYYCAKLRPYYFVYWGQGTTLTVSS VL: DIQMTQTTSSLSASLGDRVTISCRASQDISNYLNWYQQKPDGTVKLLIYYTSRLLSGVPSRFSGSGSGTDYSLTISNLEQEDIATYFCQQGNTLPLTFGAGTRLELKR
numeric-value: 0.187
//
binder: chimeric antibody 71H8 (antibody, human IgG1, kappa, V domains shown, mouse variable regions with human IgG1/kappa constant regions) VH: QVQLQQSGAELVKPGASVKMSCKASGYTFTSYWITWVKQRPGQGLEWIGDIYPGSGSTNQNEKFKSKATLTVDTSSSTAYMQLSSLTSEDSAVYYCAKLRPYYFVYWGQGTTLTVSS VL: DIQMTQTPSSLSASLGDRVTISCRASQDISNYLNWYQQKPDGTVKLLIYYTSRLLSGVPSRFSGSGSGTDYSLTISNLEQEDIATYFCQQGNTLPLTFGAGTKLELKR
numeric-value: 0.158

input: Return value of Kd for input 68C8-VH3VL3 (antibody, human IgG1, kappa, V domains shown, humanized; also called 68C8-H3L3) VH: QVQLVQSGAEVKKPGASVKVSCKVSGDTFTSYWITWVRQRPGQGLEWIGDIHPGSGSTNNNEKFKNRVTLTVDTSTDTAYMELSSLRSEDTAVYYCATLRPYYFVYWGQGTLVTVSS VL: DIQMTQSPSSLSASVGDRVTITCRASQDISNYLNWYQQKPGKTVKLLIYYTSRLLSGVPSRFSGSGSGTDYTLTISSLQPEDFATYFCQQGNTLPLTFGQGTRLEIKR , no commentary.
output: 4.04
